Here, each record is paired with measured melting point data.
Property name: melting point

Substance smiles: CCc1nccn1-c1ccc(NC(=O)CCC(=O)Nc2ccc(Cl)cc2)cc1
Measured: 184 to 188 °C
//
Substance smiles: CCCCCNC(=O)CCC(=O)Nc1ccc(-n2ccnc2CC)cc1
Measured: 95 to 98 °C
//
Substance smiles: CCc1nccn1-c1ccc(NC(=O)CCC(=O)Nc2ccccc2)cc1
Measured: 170 to 173 °C
//
Substance smiles: CCc1nccn1-c1ccc(NC(=O)CCC(=O)Nc2ccc(F)cc2)cc1
Measured: 75 to 78 °C
//
Substance smiles: CCCNC(=O)CCC(=O)Nc1ccc(-n2ccnc2CC)cc1
Measured: 128 to 130 °C
//
Substance smiles: CCc1nccn1-c1ccc(NC(=O)CCC(=O)NCc2ccccc2Cl)cc1
Measured: 116 to 120 °C
//
Substance smiles: CCc1nccn1-c1ccc(NC(=O)CCC(=O)NCc2ccccn2)cc1
Measured: 118 to 121 °C
//
Substance smiles: CCc1nccn1-c1ccc(NC(=O)CCC(=O)NCc2ccc(F)cc2)cc1
Measured: 137 to 140 °C
//
Substance smiles: CCc1nccn1-c1ccc(NC(=O)CCC(=O)O)cc1
Measured: 163 to 165 °C

* * *

Here, each record is paired with measured melting point data.

Substance smiles: CCc1nccn1-c1ccc(NC(=O)CCC(=O)NCc2ccc(Br)cc2)cc1
melting point: 143 to 145 °C

Substance smiles: CCc1nccn1-c1ccc(NC(=O)CCC(=O)NCc2ccc(Cl)cc2)cc1
melting point: 138 to 142 °C

Substance smiles: CCCCNC(=O)CCC(=O)Nc1ccc(-n2ccnc2CC)cc1
melting point: 112 to 115 °C

Substance smiles: CCc1nccn1-c1ccc(NC(=O)CCC(=O)NCc2ccc(OC)cc2)cc1
melting point: 168 to 171 °C

Substance smiles: CCc1nccn1-c1ccc(NC(=O)CCC(=O)Nc2nccs2)cc1
melting point: 168 to 170 °C
